- PROTOCOL DESCRIPTION: NCI Yeast Anticancer Drug Screen. Data for the rad50 strain (AID 155);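 further: 0% = growth of vehicle-only cultures of the same strain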
- MEASUREMENT CONTEXT: S. cerevisiae rad50 strain growth inhibition; at 50.0 µM; hits give high values
The panel holds about 79,000 compounds, 15% with a hit somewhere; the sample as a whole holds those more often.
MEASURED METRIC: growth inhibition (%)
Unit % implied. Number only.

Worked examples follow.
CCOC(=O)C1=NN(c2ccccc2)C(=O)/C1=C\N1C(=O)/C(=C/c2cccc(OC)c2O)SC1=S : 30.5
COc1ccccc1NC(=O)NCCCCCCNC(=O)Nc1ccccc1OC : -25.6
C=C1C(=O)OC2/C=C(\C)CC/C=C(/C=O)C(OC(=O)C(C)C)C(O)C12 (stereo unspecified) : -12.2

Return growth inhibition for the following compound: O=C(Nc1cccc(Cl)c1)ON1C(=O)C2C(C1=O)C1(Cl)C(Cl)C(Cl)C2(Cl)C1(Cl)Cl (stereo unspecified)
0.4

Note growth inhibition for the compound shown: `Cc1cc(NC(=O)NC(=O)c2ccccc2N(C)C)ccc1Oc1ncc(Br)cn1`
-14.6

Give recorded growth inhibition. `Fc1ccc(NC(=S)Nc2ccc(F)cc2)cc1`
-19.4

---

- PROTOCOL DESCRIPTION: NCI Yeast Anticancer Drug Screen. Data for the bub3 strain (AID 167)
- MEASUREMENT CONTEXT: S. cerevisiae bub3 mutant strain, at 50.0 µM, hits give high values
- Method: Growth inhibition of yeast strains with defined genetic alterations is measured as a screen for potential anti-cancer activity. Selected strains with alterations in DNA damage repair or cell cycle control were exposed to compounds and growth inhibition was measured relative to vehicle treated controls. The strain used in this assay is bub3
This is part of a sample that, as a whole, favours compounds with a hit. Of some 79,000 tested, about 15% had one in any assay.
MEASURED METRIC: growth inhibition (%)
Just the number in %, nothing appended.

Given the compound CC(C)CCCC(C)C1CCC2C3CCC4CC(=O)/C(=C\O)CC4(C)C3CCC12C (stereo unspecified) , write its reported growth inhibition.
25.6

---

- PROTOCOL DESCRIPTION: NCI Yeast Anticancer Drug Screen. Data for the rad50 strain (AID 155);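 further: 0% = growth of vehicle-only cultures of the same strain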
- MEASUREMENT CONTEXT: S. cerevisiae rad50 strain growth inhibition; at 50.0 µM; hits give high values
Compounds without any hit were thinned out: in the full panel of roughly 79,000, 15% have a hit.
MEASURED METRIC: growth inhibition (%)
Give the value in % but do not write % after it.

Previously resolved entries follow.
COc1cc(C(=O)CC(=O)Cc2ccc3ccccc3n2)cc(OC)c1OC : 2.75
N#Cc1c(Br)n(C2OC(CO)C(O)C2O)c2ncncc12 (centres undefined) : 1.5
Cn1c(COc2ccc(/C=N\N3CCN(/N=C\c4ccc(OCc5c[n+]6ccccc6n5C)cc4)CC3)cc2)c[n+]2ccccc12 : -15.8
O=C1N(CC2CO2)CCN1CC1CO1 (centres undefined) : -22.4
COC(=O)c1ccccc1N(C)C(=O)c1cc(OC)c(OC)c(OC)c1 : -27.4

Return growth inhibition (reported value) for this compound: CC(=O)NCC(OC(C)=O)c1ccc2c(c1)[nH]c1ccccc12 (centres undefined)
17.1

Give the reported growth inhibition for this compound. `CC(C)CN(CC#N)CC(C)C`
-31.8

Please indicate growth inhibition recorded for `COc1cccc(NC(=S)Nn2c(C)nc3ccccc3c2=O)c1`
-25.2

// fetch growth inhibition given entry CCC(C)NCC/C(=C\[Si](C)(C)C)c1ccccc1 (centres undefined)
3.05

Give a short answer stating reported growth inhibition for `CCOC(=O)C1=C(C(=O)c2cccc3ccccc23)C(c2cccc([N+](=O)[O-])c2)C(C(=O)c2cccc3ccccc23)=C(C(=O)OCC)N1` .
-12.9

Recall and state the measured growth inhibition for OC1CCCCC2CC2C1O (centres undefined) .
9.25

---

- PROTOCOL DESCRIPTION: NCI Yeast Anticancer Drug Screen. Data for the bub3 strain (AID 167)
- MEASUREMENT CONTEXT: S. cerevisiae bub3 mutant strain, at 50.0 µM, hits give high values
Compounds without any hit were thinned out: in the full panel of roughly 79,000, 15% have a hit.
MEASURED METRIC: growth inhibition (%)
Report the value in % with no unit label.

Sample records with growth inhibition:
C[N+](C)(C)CC(=O)N/N=C(\C(=O)NC1=C(Cl)C(=O)c2ccccc2C1=O)C(C#N)c1csc(-c2ccc([N+](=O)[O-])cc2)n1 (stereo not given) : 33.5
CCOC(=O)c1ccc(Nc2nc3ccccc3o2)cc1 : -0.95
CCCCCCCN(CCCCCCC)CC(O)c1cc2ccccc2c2cc(Br)ccc12 (stereo not given) : -69.1
Cn1ncc2c(NCc3ccccc3)ncnc21 : 2.7
O=C(O)C1CCCCN1/N=C/c1cccc([N+](=O)[O-])c1 (stereo not given) : 26.9

Look up and state reported growth inhibition for `Nc1ccc(Cl)c(S(=O)(=O)O)c1`
10.4

Identify growth inhibition associated with the compound `COC(=O)/C=C/c1ccc(OC(C)=O)c(OC)c1`
16.6

Give the value of growth inhibition reported for the following: `CCOc1ccc(C(=O)OC(C)C)cc1`
-2.45

Give the reported value of growth inhibition for this record: CC(C)(C)CC(C)(C(=O)O)C(C)(C)C (stereo not given)
3.15

Look up and state reported growth inhibition for O=C1c2ccccc2C(=O)C2C1C1C(=O)c3ccccc3C(=O)C21 (stereo not given)
-8.6

---

Listing: growth inhibition of selected compounds
- PROTOCOL DESCRIPTION: NCI Yeast Anticancer Drug Screen. Data for the mec2-1 strain (AID 157)
- MEASUREMENT CONTEXT: S. cerevisiae mec2-1 strain, at 50.0 µM, hits give high values
About 79,000 compounds went through this panel and 15% of them were active in at least one assay; those are over-represented in the sample as a whole.
Please give a number only; it is taken to be in %.

Completed entries (count: 5):
CCCCCCCCCCCCCCNC(=O)C(C)O (configuration not stated) : -23.8
Cc1ccc(C(C#N)c2ccc(N)cc2)cc1 (configuration not stated) : -21.3
O=C1CSC(=S)N1 : -7.9
O=c1[nH]c(=S)[nH]n1C(=S)n1[nH]c(=S)[nH]c1=O : -2.65
O=[N+]([O-])c1ccc(CS(=O)(=O)c2cccs2)o1 : 12.8

Tell us which growth inhibition value is on record for `COc1ccc(-n2c(CCCC(=O)O)nc3c2C(=O)c2ccccc2C3=O)cc1`
23.8

Return growth inhibition (reported value) for this compound: CC1=NOC(C)(O)/C1=N/O (configuration not stated)
1.05

---

growth inhibition by entry:
- PROTOCOL DESCRIPTION: NCI Yeast Anticancer Drug Screen. Data for the sgs1 mgt1 strain (AID 161);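 further: 0% = growth of cultures given vehicle only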
- MEASUREMENT CONTEXT: S. cerevisiae sgs1 mgt1 strain, at 50.0 µM, hits give high values
This is part of a sample that, as a whole, favours compounds with a hit. Of some 79,000 tested, about 15% had one in any assay.
Numbers only here, please. The scale is %.

O=C1C2=C(Nc3cc(Cl)ccc3N2)OC1c1c[nH]c2ccc(COc3ccccc3)cc12 (stereo not drawn) : -1.55
CC(C)CC1NC(=O)C(C(C)C)NC(=O)CC(C)COC(=O)C(CC(C)C)N(C)C(=O)C(C(C)C)NC(=O)C(C(C)C)OC1=O (stereo not drawn) : 7.55

Complete the entry with growth inhibition for `COc1ccc(CCNC(=S)NCCc2ccc(OC)cc2)cc1`
-1.4

---

- PROTOCOL DESCRIPTION: NCI Yeast Anticancer Drug Screen. Data for the mec2-1 strain (AID 157)
- MEASUREMENT CONTEXT: S. cerevisiae mec2-1 strain, at 50.0 µM, hits give high values
Compounds without any hit were thinned out: in the full panel of roughly 79,000, 15% have a hit. Calls of active or inactive are those of the source. Cut-off read from the data, not from the text of the source: active = growth inhibition above about 70%; inactive = the rest.
Entries annotated with measured growth inhibition

COC1(OC)C2(Cl)CC(C(=O)O)C1(Cl)C(Cl)=C2Cl (stereo not drawn) : 3.85% (inactive)
CCCCNC(=O)C(C)S(=O)(=O)c1ccc(C)cc1 (stereo not drawn) : 16.4% (inactive)
O=c1onc2c3ccccc3ncn12 : 7.6% (inactive)
CN1CN(C(=O)N2CN(C)C(=O)N(C)C2)CN(C)C1=O : -13.6% (inactive)

Recall and state the measured growth inhibition for CCCC(C)C(=O)OC1CCCCC1 (stereo not drawn) .
1.3% (inactive)

Identify the reported growth inhibition for the following entry. N#CC(c1ccccc1)C1CCCCC1 (stereo not drawn)
-20% (inactive)

Please look at this molecule and report its growth inhibition: `CC(C)NC(=O)OCc1c(COC(=O)NC(C)C)c(S(C)(=O)=O)n2c1CCC2`
-4.7% (inactive)

Indicate its recorded growth inhibition; the molecule in question is `CCCCC(=O)N/N=C/c1c[nH]c2ccc(Br)cc12`
6.05% (inactive)

---

- PROTOCOL DESCRIPTION: NCI Yeast Anticancer Drug Screen. Data for the sgs1 mgt1 strain (AID 161);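 further: 0% = growth of cultures given vehicle only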
- MEASUREMENT CONTEXT: S. cerevisiae sgs1 mgt1 strain, at 50.0 µM, hits give high values
Compounds without any hit were thinned out: in the full panel of roughly 79,000, 15% have a hit.
Quick list: growth inhibition per entry.
A number alone suffices; assume %.

CC1CCOC(/C=C/c2ccccc2)O1 (stereo not drawn) : 5.7
O=C(Nc1ccccc1)N1CC2(CN1)CNN(C(=O)Nc1ccccc1)C2 : 15.7

Given `Cc1nc(Cl)nc2c1C(=O)Nc1ccccc1N2` , respond with its growth inhibition.
0
